Form field: growth (one value per entry).
Test system: ACHN renal
ASSAY_REMARKS: NCI-60 one-dose screen, 48 h (100 = growth as untreated, 0 = no growth, -100 = all killed)
CONDITION_INFO: 10 µM unless noted
Experimental: Growth inhibition of the ACHN human tumor cell line is measured as a screen for anti-cancer activity. Cells are grown in 96 well plates and exposed to the test compound for 48 hours. Compounds are tested at a single concentration, which is 10^-5 M for most compounds. The reported endpoint is percent growth (GI% or GIPRCNT), where numbers from 0 - 100% represent growth inhibition, and numbers from -100% - 0 represent cell death. For example, a value of 40 represents 60% growth inhibition. […]
About 83,000 compounds went through this panel and 20% of them were active in at least one assay; those are over-represented in the sample as a whole.
Please respond with the number in % and leave the unit unwritten.

Below, each entry is followed by its recorded growth result.
{"MOLECULE": "Cn1cccc1/C=C1/SC(=S)N(CCc2ccc(O)cc2)C1=O", "growth [%]": 59.9}
{"MOLECULE": "CCN1CCN(C(=O)[C@]23CCC(C)(C)C[C@@H]2C2=CC[C@@H]4[C@@]5(C)C/C(=C/c6cccnc6)C(=O)C(C)(C)[C@@H]5CC[C@@]4(C)[C@]2(C)CC3)CC1", "growth [%]": 33.4}

So what's the measured growth for this one? `C[C@@H](C(=O)O)c1ccc2c3cc(Cl)ccc3n(Cc3cc(=O)oc4ccc(Cl)cc34)c2c1`
99.8

So what's the measured growth for this one? `C=C1C(=O)O[C@H]2[C@H]1CC/C(Cn1cc(-c3ccc(OC)cc3)nn1)=C\CC[C@@]1(C)O[C@@H]21`
6.78

So what's the measured growth for this one? `Nc1c(C(=O)Nc2cccc3ccccc23)sc2nc3c(cc12)CCCC3`
44.7

So what's the measured growth for this one? `O=C(N/N=C/c1ccccc1SSc1ccccc1/C=N/NC(=O)c1ccccc1)c1ccccc1`
15.4

So what's the measured growth for this one? `COc1cc2c(cc1-c1c(C)noc1C)ncc1nc(C3CC3)n([C@H](C)COC(F)F)c12`
40.6

So what's the measured growth for this one? CC1(c2ccccc2)OC1C(=O)O (configuration not stated)
102

So what's the measured growth for this one? `CC1(C)C=CC[C@]2(C)[C@H]3CC[C@@H]4[C@H]5[C@H](C(=O)/C=C/c6cccnc6)CC[C@]5(CO)CC[C@@]4(C)[C@]3(C)CC[C@@H]12`
-100

So what's the measured growth for this one? `CC(=O)O[C@H]1CC[C@]2(C)[C@H]3C(=O)C=C4[C@@H]5C[C@](C)(C(=O)N6CCCNCC6)CC[C@]5(C)CC[C@@]4(C)[C@]3(C)CC[C@H]2C1(C)C`
-100

So what's the measured growth for this one? `COc1ccc2c(c1)c(-c1nc(-c3c[nH]c4ncccc34)cs1)cn2CCNC(=O)OC(C)(C)C`
67.9

So what's the measured growth for this one? `C=C1C(=O)O[C@H]2[C@H]1CC/C(COC(=O)NCCc1c[nH]c3ccccc13)=C\CC[C@@]1(C)O[C@@H]21`
-93.7

###

Form field: growth (one value per entry).
Tested on: HCT-15 colon
ASSAY_REMARKS: NCI-60 one-dose screen, 48 h (100 = growth as untreated, 0 = no growth, -100 = all killed)
CONDITION_INFO: 10 µM unless noted
Protocol: Growth inhibition of the HCT-15 human tumor cell line is measured as a screen for anti-cancer activity. Cells are grown in 96 well plates and exposed to the test compound for 48 hours. Compounds are tested at a single concentration, which is 10^-5 M for most compounds. The reported endpoint is percent growth (GI% or GIPRCNT), where numbers from 0 - 100% represent growth inhibition, and numbers from -100% - 0 represent cell death. For example, a value of 40 represents 60% growth inhibition. […]
About 83,000 compounds went through this panel and 20% of them were active in at least one assay; those are over-represented in the sample as a whole.
Please respond with the number in % and leave the unit unwritten.

{"COMPOUND": "O=C(NC(Cc1cn(Cc2ccccc2)cn1)C(=O)O)OCC1c2ccccc2-c2ccccc21 (centres undefined)", "UNIT_ANNOTATION": "%", "MEASURED_RESULT": 104}
{"COMPOUND": "CCCC(=O)N1CCCCC1CC (centres undefined)", "UNIT_ANNOTATION": "%", "MEASURED_RESULT": 99.4}
{"COMPOUND": "COC(=O)[C@@H]1[C@H]2C[C@H]3c4[nH]c5cc(OC)ccc5c4CCN3C[C@@H]2C[C@H](OC(=O)/C=C/c2ccnc(OC)c2)[C@H]1OC", "UNIT_ANNOTATION": "%", "MEASURED_RESULT": 71.1}
{"COMPOUND": "CC(=O)Cc1nsc(NC(=O)c2ccoc2COc2ccccc2)n1", "UNIT_ANNOTATION": "%", "MEASURED_RESULT": 105}
{"COMPOUND": "N#C/C(=C\\c1ccc(-c2ccc(Br)cc2)o1)c1nc(-c2cccs2)cs1", "UNIT_ANNOTATION": "%", "MEASURED_RESULT": 98.8}

Now for the compound whose growth we want.
So what's the measured growth for this one? CC(C)(C)c1[nH]nc2c1C(c1cc3ccccc3[nH]c1=O)Nc1cc(C(=O)OCc3ccccc3)ccc1N2 (centres undefined)
55.3
